# Test system: giant foxtail (Setaria faberii)
# Test Name: Test B pre-/postemergence plant response
# Type: in vivo
# Condition Context: Preemergence, 31 g ai/ha; scale 0 to 100 (0 no effect, 100 complete control)
# Text: […] Treated plants and controls were maintained in a greenhouse for 13 to 15 days, after which time all treated plants were visually evaluated and compared to controls. […]
Measure: Plant response rating, Foxtail, Giant
Quick one: just the number, no unit, thanks!

{"Input Smiles": "Cc1c(Cl)cccc1-n1c(-c2ccccc2)ncc(C(=O)C2=C(O)CCCC2=O)c1=O", "Plant response rating, Foxtail, Giant": 10}
{"Input Smiles": "O=C1CCCC(O)=C1C(=O)c1cnc(-c2cccc(Cl)c2)n(-c2ccc(Cl)cc2)c1=O", "Plant response rating, Foxtail, Giant": 20}
{"Input Smiles": "Cc1ccccc1-n1c(-c2cccc(Cl)c2)ncc(C(=O)C2=C(O)CCCC2=O)c1=O", "Plant response rating, Foxtail, Giant": 10}
{"Input Smiles": "CCCc1ncc(C(=O)C2=C(O)CCCC2=O)c(=O)n1-c1ccccc1C", "Plant response rating, Foxtail, Giant": 0}
{"Input Smiles": "CCCCc1ncc(C(=O)C2=C(O)CCCC2=O)c(=O)n1-c1ccccc1", "Plant response rating, Foxtail, Giant": 0}
{"Input Smiles": "CCCCc1ncc(C(=O)C2=C(O)CCCC2=O)c(=O)n1-c1cccc(C)c1", "Plant response rating, Foxtail, Giant": 0}

### Prompt Item CCCCc1ncc(C(=O)C2=C(O)CCCC2=O)c(=O)n1-c1ccc(C)cc1 has what recorded Plant response rating, Foxtail, Giant?
### Response 0

### Prompt Follow-up entry: Cn1c(-c2ccccc2)ncc(C(=O)C2=C(O)CCCC2=O)c1=O
### Response 0

====

Each record here notes measured Plant response rating, Windgrass.
# Tested on: windgrass (Apera spica-venti)
# Test Name: Test B postemergence plant response
# Format: in vivo
# Condition Context: Postemergence, 250 g ai/ha; scale 0 to 100 (0 no effect, 100 complete control)
Quick one: just the number, no unit, thanks!

{"Compound": "CC(C)CC(=O)OC1=C(C(=O)c2cnc(-c3ccccc3)n(-c3ccccc3)c2=O)C(=O)CCC1", "Plant response rating, Windgrass": 30}

### Prompt Item CCCc1ncc(C(=O)C2=C(O)CCCC2=O)c(=O)n1-c1ccccc1C has what recorded Plant response rating, Windgrass?
### Response 98

### Prompt Follow-up entry: O=C1CCCC(O)=C1C(=O)c1cnc(-c2ccccc2Br)n(-c2ccccc2)c1=O
### Response 60

### Prompt Follow-up entry: O=C1CCCC(O)=C1C(=O)c1cnc(-c2ccccc2)n(CC2CCCO2)c1=O (stereo not shown)
### Response 70

### Prompt Follow-up entry: COCCn1c(-c2ccccc2)ncc(C(=O)C2=C(O)CCCC2=O)c1=O
### Response 95

### Prompt Follow-up entry: O=C1CCCC(OC(=O)C2CC2)=C1C(=O)c1cnc(-c2ccccc2)n(-c2ccccc2)c1=O
### Response 70

### Prompt Follow-up entry: O=C1CCCC(O)=C1C(=O)c1cnc(-c2cccc(Cl)c2)n(-c2ccc(Cl)cc2)c1=O
### Response 100

====

# Test system: dayflower (Virginia (VA) dayflower, Commelina virginica)
# Test Name: Test D pre-/postemergence plant response
# Type: in vivo
# Condition Context: Postemergence, 62 g ai/ha; scale 0 to 100 (0 no effect, 100 complete control)
Measure: Plant response rating, Dayflower, VA
Quick one: just the number, no unit, thanks!

As a guide, the following entries are already answered.
{"Molecule": "CCCCn1c(-c2cc(F)cc(F)c2)ncc(C(=O)C2=C(O)C3CCC(C3)C2=O)c1=O (stereo not shown)", "Readout Number": 35}
{"Molecule": "COCCn1c(-c2cccc(C)c2)ncc(C(=O)C2=C(O)C3CCC(C3)C2=O)c1=O (stereo not shown)", "Readout Number": 35}
{"Molecule": "COCCn1c(-c2cccc(F)c2)ncc(C(=O)C2=C(O)C3CCC(C3)C2=O)c1=O (stereo not shown)", "Readout Number": 70}

### Prompt Item COCCn1c(-c2ccccc2)ncc(C(=O)C2=C(O)CCCC2=O)c1=O has what recorded Plant response rating, Dayflower, VA?
### Response 60
